target: CFTR G551D mutant (Homo sapiens, UniProt P13569, G551D); construct: expressed in transfected cells; host or cells: HEK293 (reverse transfection with plasmid); assay: YFP-halide influx assay for the CFTR-G551D mutation; type: cell-based; settings: HEK293 cells, forskolin 10.67 μM
Sequence (P13569 whole entry G551D): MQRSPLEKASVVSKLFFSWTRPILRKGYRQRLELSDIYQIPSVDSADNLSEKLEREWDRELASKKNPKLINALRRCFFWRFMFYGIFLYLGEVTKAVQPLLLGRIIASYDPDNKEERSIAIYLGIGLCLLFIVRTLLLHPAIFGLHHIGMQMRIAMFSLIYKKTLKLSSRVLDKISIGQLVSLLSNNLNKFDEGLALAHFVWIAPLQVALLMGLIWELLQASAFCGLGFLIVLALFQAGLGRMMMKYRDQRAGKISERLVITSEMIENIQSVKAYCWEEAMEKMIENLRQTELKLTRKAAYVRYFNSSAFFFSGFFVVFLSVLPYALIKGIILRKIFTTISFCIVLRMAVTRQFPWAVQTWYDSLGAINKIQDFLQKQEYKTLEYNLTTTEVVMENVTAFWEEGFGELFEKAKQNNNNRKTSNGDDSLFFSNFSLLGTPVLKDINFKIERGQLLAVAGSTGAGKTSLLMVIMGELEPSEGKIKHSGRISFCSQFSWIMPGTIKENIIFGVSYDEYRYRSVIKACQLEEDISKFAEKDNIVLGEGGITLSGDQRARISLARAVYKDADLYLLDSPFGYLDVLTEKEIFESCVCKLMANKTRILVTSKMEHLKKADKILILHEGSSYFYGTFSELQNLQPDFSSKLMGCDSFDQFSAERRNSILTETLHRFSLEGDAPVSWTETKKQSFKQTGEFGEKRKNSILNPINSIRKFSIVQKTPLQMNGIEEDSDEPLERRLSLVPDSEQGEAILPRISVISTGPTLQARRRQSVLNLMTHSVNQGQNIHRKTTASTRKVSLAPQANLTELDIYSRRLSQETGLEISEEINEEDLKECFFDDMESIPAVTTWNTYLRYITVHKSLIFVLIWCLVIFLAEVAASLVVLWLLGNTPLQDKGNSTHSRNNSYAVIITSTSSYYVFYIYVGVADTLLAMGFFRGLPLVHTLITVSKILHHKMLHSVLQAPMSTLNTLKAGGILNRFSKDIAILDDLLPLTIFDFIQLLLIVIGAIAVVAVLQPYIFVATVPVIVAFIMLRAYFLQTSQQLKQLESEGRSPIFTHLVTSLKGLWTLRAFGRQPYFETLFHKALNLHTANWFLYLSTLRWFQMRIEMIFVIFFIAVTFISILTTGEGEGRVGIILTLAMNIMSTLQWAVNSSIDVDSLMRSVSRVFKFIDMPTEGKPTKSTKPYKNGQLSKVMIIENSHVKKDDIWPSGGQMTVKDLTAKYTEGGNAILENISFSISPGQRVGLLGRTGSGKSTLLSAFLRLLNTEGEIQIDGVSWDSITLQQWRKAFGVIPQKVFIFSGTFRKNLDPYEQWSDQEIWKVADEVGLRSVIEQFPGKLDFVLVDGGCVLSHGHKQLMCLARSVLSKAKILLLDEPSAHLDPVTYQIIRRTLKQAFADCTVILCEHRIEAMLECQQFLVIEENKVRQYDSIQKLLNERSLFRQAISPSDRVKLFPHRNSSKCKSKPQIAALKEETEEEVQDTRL
pEC50: −log10 of the molar value.
measured.parameter: pEC50

• CC(C)(O)C(=O)Nc1sc(S(=O)(=O)c2cccnc2C(F)(F)F)cc1C(N)=O = 5.76
• NC(=O)c1cc(S(=O)(=O)c2ccccc2)sc1NC(=O)c1cc[nH]n1 = 6.47
• Cc1ccc(S(=O)(=O)c2cc(C(N)=O)c(NC(=O)C(C)(C)O)s2)cn1 = 5.48
• CC(C)(O)C(=O)Nc1sc(S(=O)(=O)c2ccc(Cl)cc2)cc1C(N)=O = 5.57
• COc1ccc(F)cc1S(=O)(=O)c1cc(C(N)=O)c(NC(=O)C(C)(C)O)s1 = 6.00
• CC(O)C(=O)Nc1sc(S(=O)(=O)c2ccc(C(F)(F)F)cc2)cc1C(N)=O (centres unmarked) = 6.29
• NC(=O)c1cc(S(=O)(=O)c2ccc(OC(F)(F)F)cc2)sc1NC(=O)C1(CO)CCC1 = 6.44

---

target: CFTR ΔF508 mutant (Homo sapiens, UniProt P13569, DEL508-508); construct: expressed in transfected cells; host or cells: CFBE41o- (adenoviral transduction); assay: YFP-halide influx assay for the CFTR-ΔF508 mutation, gluconate buffer; format: cell-based; conditions: CFBE41o- cells, forskolin 10.67 μM
Sequence (P13569 with tags, fused parts or gaps DEL508-508): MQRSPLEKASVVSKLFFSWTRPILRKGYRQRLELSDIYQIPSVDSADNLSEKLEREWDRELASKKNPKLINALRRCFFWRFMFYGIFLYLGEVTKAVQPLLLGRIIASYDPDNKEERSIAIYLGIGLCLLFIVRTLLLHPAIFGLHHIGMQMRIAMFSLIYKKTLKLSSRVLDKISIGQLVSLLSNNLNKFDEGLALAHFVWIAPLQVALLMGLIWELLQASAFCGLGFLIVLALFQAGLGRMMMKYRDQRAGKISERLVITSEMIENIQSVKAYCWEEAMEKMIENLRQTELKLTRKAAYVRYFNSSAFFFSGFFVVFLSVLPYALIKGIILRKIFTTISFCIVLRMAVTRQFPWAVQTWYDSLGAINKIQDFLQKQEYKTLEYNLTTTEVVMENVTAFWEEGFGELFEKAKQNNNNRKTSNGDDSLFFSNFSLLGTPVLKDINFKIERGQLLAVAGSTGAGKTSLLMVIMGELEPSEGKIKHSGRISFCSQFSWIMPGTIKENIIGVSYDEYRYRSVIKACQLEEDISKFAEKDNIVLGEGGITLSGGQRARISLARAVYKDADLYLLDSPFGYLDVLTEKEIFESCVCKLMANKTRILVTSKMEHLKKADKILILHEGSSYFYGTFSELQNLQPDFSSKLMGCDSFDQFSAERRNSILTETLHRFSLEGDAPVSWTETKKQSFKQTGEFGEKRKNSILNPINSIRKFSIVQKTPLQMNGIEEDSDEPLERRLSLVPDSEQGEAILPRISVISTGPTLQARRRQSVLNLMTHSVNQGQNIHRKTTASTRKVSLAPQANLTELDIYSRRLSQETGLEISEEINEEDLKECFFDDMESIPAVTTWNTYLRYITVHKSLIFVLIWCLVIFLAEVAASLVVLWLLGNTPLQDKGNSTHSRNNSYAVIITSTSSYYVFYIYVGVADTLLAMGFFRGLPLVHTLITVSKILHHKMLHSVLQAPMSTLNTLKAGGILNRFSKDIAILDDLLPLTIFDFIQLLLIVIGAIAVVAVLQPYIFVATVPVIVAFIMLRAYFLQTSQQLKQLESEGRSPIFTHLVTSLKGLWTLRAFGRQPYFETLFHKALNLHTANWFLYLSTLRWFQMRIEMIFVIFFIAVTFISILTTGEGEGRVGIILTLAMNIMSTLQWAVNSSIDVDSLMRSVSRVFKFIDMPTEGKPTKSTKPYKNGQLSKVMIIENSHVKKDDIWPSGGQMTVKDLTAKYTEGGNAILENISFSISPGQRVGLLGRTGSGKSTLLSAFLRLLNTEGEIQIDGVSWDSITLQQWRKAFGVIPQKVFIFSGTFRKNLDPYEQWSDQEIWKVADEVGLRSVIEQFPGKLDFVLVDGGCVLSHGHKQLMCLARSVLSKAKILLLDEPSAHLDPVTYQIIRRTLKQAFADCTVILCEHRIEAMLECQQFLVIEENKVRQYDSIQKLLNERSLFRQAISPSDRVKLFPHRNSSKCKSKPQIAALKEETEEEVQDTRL
pEC50: −log10 of the molar value.
Note to self: values exactly at 7 are 1.0. So pEC50 at or above 7 is 1.0, below is 0.0.

- CC(C)(C)C(=O)Nc1sc(S(=O)(=O)c2ccc(F)cc2)cc1C(N)=O: 0.0
- CC(C)(C)c1ccc(C(=O)Nc2sc(S(=O)(=O)N3CCCCC3)cc2C(N)=O)cc1: 0.0
- Cc1cc(C(=O)Nc2sc(S(=O)(=O)N3CCOCC3)cc2C(N)=O)n[nH]1: 0.0
- CC(C)(C)C(=O)Nc1sc(S(=O)(=O)c2cccc(F)c2)cc1C(N)=O: 0.0
- NC(=O)c1cc(S(=O)(=O)N2CCC(c3ccccc3)CC2)sc1NC(=O)c1ccccc1F: 0.0
- CS(=O)(=O)c1cc(C(N)=O)c(NC(=O)c2ccccc2F)s1: 0.0
- CN(CC(C)(C)C)S(=O)(=O)c1cc(C(N)=O)c(NC(=O)c2cc[nH]n2)s1: 1.0
- NC(=O)c1cc(S(=O)(=O)c2ccc(F)cc2)sc1NC(=O)c1ccn[nH]1: 1.0
- NC(=O)c1cc(S(=O)(=O)N2CCCCC2)sc1NC(=O)C1(c2ccc(Cl)cc2)CC1: 0.0
- NC(=O)c1cc(S(=O)(=O)N2CCOCC2)sc1NC(=O)c1ccc[nH]1: 0.0
- NC(=O)c1cc(S(=O)(=O)N2CCCCC2)sc1NC(=O)c1cc2c(s1)CCCC2: 0.0
- CN(Cc1ccc(F)cc1F)S(=O)(=O)c1cc(C(N)=O)c(NC(=O)c2cc[nH]n2)s1: 1.0
- COCCCN(C)S(=O)(=O)c1cc(C(N)=O)c(NC(=O)c2ccccc2F)s1: 0.0
- NC(=O)c1cc(S(=O)(=O)N2CCOCC2)sc1NC(=O)c1ncccn1: 0.0
- CC(C)(C)c1ccc(C(=O)Nc2sc(S(=O)(=O)N3CCCCC3)cc2C(N)=O)s1: 0.0
- CC1(C(=O)Nc2sc(S(=O)(=O)N3CCCCC3)cc2C(N)=O)CC1: 0.0
- NC(=O)c1cc(S(=O)(=O)N2CCCCC2)sc1NC(=O)c1ccc(Cl)cc1: 0.0
- Cc1c(S(=O)(=O)c2ccccc2)sc(NC(=O)c2cc[nH]n2)c1C(N)=O: 1.0
- CC(C)(C)c1ccc(C(=O)Nc2sc(S(=O)(=O)N3CCOCC3)cc2C(N)=O)s1: 0.0
- NC(=O)c1cc(S(=O)(=O)N2CC(F)(F)C2)sc1NC(=O)c1ccccc1F: 0.0
- NC(=O)c1cc(S(=O)(=O)N2CC(F)C2)sc1NC(=O)c1cc[nH]n1: 0.0
- Cc1ccc(CN(C)S(=O)(=O)c2cc(C(N)=O)c(NC(=O)c3cc[nH]n3)s2)cc1: 1.0
- NC(=O)c1cc(S(=O)(=O)c2ccc(F)cc2)sc1NC(=O)C1(O)CCC1: 1.0
- NC(=O)c1cc(S(=O)(=O)N2CCCCC2)sc1NC(=O)c1ccc(F)cc1: 0.0
- CN(C1CCOCC1)S(=O)(=O)c1cc(C(N)=O)c(NC(=O)c2ccccc2F)s1: 0.0
- NC(=O)c1cc(S(=O)(=O)c2ccccc2)sc1NC(=O)c1cc[nH]n1: 1.0
- Cc1ccc(C(=O)Nc2sc(S(=O)(=O)Cc3ccccc3)cc2C(N)=O)s1: 0.0
- NC(=O)c1cc(S(=O)(=O)N2CCCCC2)sc1NC(=O)c1ccc(F)s1: 0.0
- NC(=O)c1cc(S(=O)(=O)N2CCOCC2)sc1NC(=O)c1ccnnc1: 0.0

---

target: CFTR-R117H (Homo sapiens, UniProt P13569, R117H); assay: YFP-halide influx assay for the CFTR-R117H
Sequence (P13569 whole entry R117H): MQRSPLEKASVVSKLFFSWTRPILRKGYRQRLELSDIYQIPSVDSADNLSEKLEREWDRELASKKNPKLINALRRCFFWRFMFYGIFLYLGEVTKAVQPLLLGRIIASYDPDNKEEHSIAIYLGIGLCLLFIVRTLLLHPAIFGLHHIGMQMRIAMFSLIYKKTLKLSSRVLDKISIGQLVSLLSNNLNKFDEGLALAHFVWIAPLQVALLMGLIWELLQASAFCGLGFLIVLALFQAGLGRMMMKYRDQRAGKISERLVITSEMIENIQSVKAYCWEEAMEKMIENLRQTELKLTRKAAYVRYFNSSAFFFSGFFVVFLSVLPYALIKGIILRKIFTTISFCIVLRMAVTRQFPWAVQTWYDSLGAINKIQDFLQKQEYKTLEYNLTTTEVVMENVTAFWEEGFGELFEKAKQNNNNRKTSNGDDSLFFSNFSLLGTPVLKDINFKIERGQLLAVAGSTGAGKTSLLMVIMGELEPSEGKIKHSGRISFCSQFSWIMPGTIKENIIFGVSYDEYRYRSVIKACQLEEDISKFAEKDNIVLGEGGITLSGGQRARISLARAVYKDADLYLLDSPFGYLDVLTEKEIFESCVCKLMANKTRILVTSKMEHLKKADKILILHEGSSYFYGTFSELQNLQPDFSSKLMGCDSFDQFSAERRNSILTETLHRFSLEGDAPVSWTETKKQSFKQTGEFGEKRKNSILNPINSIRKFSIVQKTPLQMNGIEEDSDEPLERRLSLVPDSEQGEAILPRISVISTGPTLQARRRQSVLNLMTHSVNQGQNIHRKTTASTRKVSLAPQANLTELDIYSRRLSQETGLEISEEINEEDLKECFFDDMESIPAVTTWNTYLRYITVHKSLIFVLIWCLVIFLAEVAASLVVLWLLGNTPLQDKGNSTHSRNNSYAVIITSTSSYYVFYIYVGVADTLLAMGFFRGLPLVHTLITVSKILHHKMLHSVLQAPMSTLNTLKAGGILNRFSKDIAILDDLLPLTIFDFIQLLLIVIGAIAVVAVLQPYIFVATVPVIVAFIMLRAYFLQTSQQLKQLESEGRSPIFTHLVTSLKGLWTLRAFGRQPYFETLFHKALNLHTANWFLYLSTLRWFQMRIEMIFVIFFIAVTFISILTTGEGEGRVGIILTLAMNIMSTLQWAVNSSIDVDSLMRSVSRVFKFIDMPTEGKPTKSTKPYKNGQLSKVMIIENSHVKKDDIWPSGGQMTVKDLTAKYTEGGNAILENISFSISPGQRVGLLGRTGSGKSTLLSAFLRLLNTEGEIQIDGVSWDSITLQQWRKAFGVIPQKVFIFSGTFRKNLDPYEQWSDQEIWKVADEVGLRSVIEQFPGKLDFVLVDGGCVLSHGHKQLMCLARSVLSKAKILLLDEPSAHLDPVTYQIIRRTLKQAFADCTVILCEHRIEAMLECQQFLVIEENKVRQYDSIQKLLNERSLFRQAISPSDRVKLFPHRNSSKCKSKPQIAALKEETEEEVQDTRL
pEC50: −log10 of the molar value.
Note to self: values exactly at 7 are True. So pEC50 at or above 7 is True, below is False.

* CC(C)(O)C(=O)Nc1sc(S(=O)(=O)c2nc(C(F)(F)F)ccc2C(F)(F)F)cc1C(N)=O | True
* CC(C)(O)C(=O)Nc1sc(S(=O)(=O)c2ccc(C(F)(F)F)nc2)cc1C(N)=O | False
* CC(C)(O)C(=O)Nc1sc(S(=O)(=O)c2ccc(C#N)cc2C(F)(F)F)cc1C(N)=O | False
* CC(C)(O)C(=O)Nc1sc(S(=O)(=O)c2cc(F)ccc2Cl)cc1C(N)=O | True
* CC(C)(O)C(=O)Nc1sc(S(=O)(=O)c2ccc(OC(F)(F)F)cc2)cc1C(N)=O | False
* CC(CO)C(=O)Nc1sc(S(=O)(=O)c2ccc(F)cc2Cl)cc1C(N)=O (centres unmarked) | True
* NC(=O)c1cc(S(=O)(=O)c2ccccc2)sc1NC(=O)c1cc[nH]n1 | False
* CC(C)c1nn(C)cc1S(=O)(=O)c1cc(C(N)=O)c(NC(=O)C(C)(C)O)s1 | False
* CC(C)(O)C(=O)Nc1sc(S(=O)(=O)c2cccc(C(F)(F)F)n2)cc1C(N)=O | False
* Cc1cc(C(F)(F)F)cc(S(=O)(=O)c2cc(C(N)=O)c(NC(=O)C(C)(C)O)s2)c1 | False
* CC(C)(O)C(=O)Nc1sc(S(=O)(=O)c2cc(Cl)ncc2C#N)cc1C(N)=O | False
* CC(C)(O)C(=O)Nc1sc(S(=O)(=O)c2cc(Cl)cc(C(F)(F)F)c2)cc1C(N)=O | False
* CC(C)(O)C(=O)Nc1sc(S(=O)(=O)c2ccccc2OC(F)(F)F)cc1C(N)=O | True
* COc1cc(S(=O)(=O)c2cc(C(N)=O)c(NC(=O)C(C)(C)O)s2)c(OC(F)F)cn1 | False
* CC(O)C(=O)Nc1sc(S(=O)(=O)c2ccc(C(F)(F)F)cc2F)cc1C(N)=O (centres unmarked) | True
* Cc1c(S(=O)(=O)c2ccc(OC(F)(F)F)cc2)sc(NC(=O)C(C)(C)O)c1C(N)=O | False
* CC(O)C(=O)Nc1sc(S(=O)(=O)c2ccc(F)cc2C(F)(F)F)cc1C(N)=O (centres unmarked) | False
* CC(C)(O)C(=O)Nc1sc(S(=O)(=O)c2ccc(OC(F)(F)F)cn2)cc1C(N)=O | False
* CC(C)(O)C(=O)Nc1sc(S(=O)(=O)c2ccccc2Cl)cc1C(N)=O | False
* CC(C)(O)C(=O)Nc1sc(S(=O)(=O)c2ccc(OC(F)(F)F)c(F)c2)cc1C(N)=O | False
* CC(C)(O)C(=O)Nc1sc(S(=O)(=O)c2cc(C(F)(F)F)ncc2Cl)cc1C(N)=O | False
* CC(C)(O)C(=O)Nc1sc(S(=O)(=O)c2ccc(OC(F)(F)F)cc2F)cc1C(N)=O | False

---

molecular target: CFTR ΔF508 mutant (Homo sapiens, UniProt P13569, DEL508-508); construct: expressed in transfected cells; host or cells: CFBE41o- (adenoviral transduction); assay: YFP-halide influx assay for the CFTR-ΔF508 mutation, PBS buffer (96 well); type: cell-based; conditions: CFBE41o- cells, forskolin 10.67 μM
pEC50: −log10 of the molar value.
measured.parameter: pEC50

• CC1COCC(C)N1S(=O)(=O)c1cc(C(N)=O)c(NC(=O)C2(O)CC2)s1 (centres unmarked) = 6.55
• CC(C)(O)C(=O)Nc1sc(S(=O)(=O)c2ccccc2CC(F)(F)F)cc1C(N)=O = 7.95
• CN(CCC(F)(F)F)S(=O)(=O)c1cc(C(N)=O)c(NC(=O)c2cc[nH]n2)s1 = 7.42
• CC1COCC(C)N1S(=O)(=O)c1cc(C(N)=O)c(NC(=O)c2ccccc2C(F)(F)F)s1 (centres unmarked) = 6.84
• CC(C)(CO)C(=O)Nc1sc(S(=O)(=O)c2ccc(F)cc2)cc1C(N)=O = 7.14
• CC1(C)CN(S(=O)(=O)c2cc(C(N)=O)c(NC(=O)c3ccccc3F)s2)C1 = 7.59
• NC(=O)c1cc(S(=O)(=O)c2ccc(F)cc2)sc1NC(=O)C(O)CO (centres unmarked) = 5.63
• NC(=O)c1cc(S(=O)(=O)c2ccc(F)cc2)sc1NC(=O)C1CCCCC1O (centres unmarked) = 7.55
• CC(C)N(C(C)C)S(=O)(=O)c1cc(C(N)=O)c(NC(=O)C2(O)CC2)s1 = 6.89
• COc1ccc(CN(C)S(=O)(=O)c2cc(C(N)=O)c(NC(=O)c3cc[nH]n3)s2)cc1F = 7.41
• CN(Cc1ccccc1)S(=O)(=O)c1cc(C(N)=O)c(NC(=O)c2ccn[nH]2)s1 = 7.78
• NC(=O)c1cc(S(=O)(=O)N2CCC(F)(F)CC2)sc1NC(=O)C1(O)CCC1 = 6.93
• NC(=O)c1cc(S(=O)(=O)c2ccc(F)cc2F)sc1NC(=O)C1(O)CC1 = 7.58
• CN(CC1CC1)S(=O)(=O)c1cc(C(N)=O)c(NC(=O)c2ccccc2F)s1 = 7.14
• NC(=O)c1cc(S(=O)(=O)c2c(Cl)cccc2Cl)sc1NC(=O)C1(O)CC1 = 7.97
• COc1ccc(S(=O)(=O)c2cc(C(N)=O)c(NC(=O)C(C)(C)O)s2)c(OC(F)F)c1 = 7.29
• C[C@H](O)C(=O)Nc1sc(S(=O)(=O)c2ccc(F)cc2)cc1C(N)=O = 7.09
